- System: 186277-243-T-J2-PDC complex spheroid growth;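 further: luminescent signal used as a stand-in for viable cell amount; spheroids exposed to compounds for seven days before the viability read; 100% = DMSO vehicle control wells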
- assayDetails: Anticancer human tumor 186277-243-T-J2-PDC patient-derived colon adenocarcinoma cell line growth inhibition [AhR]
- setupConditions: second compound 1 µM; first compound 0.0949 µM; stronger effect = lower value
readoutType: viability, T/C (%)

• Nc1ncn(C2CC(O)C(CO)S2)c(=O)n1 (stereo not drawn) + Cc1cncc(-c2nc(NCCc3c[nH]c4ccccc34)c3ncn(C(C)C)c3n2)c1 = 140
• CCc1c2c(nc3ccc(O)cc13)-c1cc3c(c(=O)n1C2)COC(=O)[C@]3(O)CC + CC(CO)NC(=O)c1cc(-c2ccc(Cl)cc2)nn(-c2cnn(C)c2)c1=O = 8.38
• O=C(C=Cn1cnc(-c2cc(C(F)(F)F)cc(C(F)(F)F)c2)n1)NNc1cnccn1 + CC(CO)NC(=O)c1cc(-c2ccc(Cl)cc2)nn(-c2cnn(C)c2)c1=O = 46.9
